Ref: patent US12441726B2

Target: BRM (Homo sapiens, UniProt P51531)
Sequence (P51531 whole entry): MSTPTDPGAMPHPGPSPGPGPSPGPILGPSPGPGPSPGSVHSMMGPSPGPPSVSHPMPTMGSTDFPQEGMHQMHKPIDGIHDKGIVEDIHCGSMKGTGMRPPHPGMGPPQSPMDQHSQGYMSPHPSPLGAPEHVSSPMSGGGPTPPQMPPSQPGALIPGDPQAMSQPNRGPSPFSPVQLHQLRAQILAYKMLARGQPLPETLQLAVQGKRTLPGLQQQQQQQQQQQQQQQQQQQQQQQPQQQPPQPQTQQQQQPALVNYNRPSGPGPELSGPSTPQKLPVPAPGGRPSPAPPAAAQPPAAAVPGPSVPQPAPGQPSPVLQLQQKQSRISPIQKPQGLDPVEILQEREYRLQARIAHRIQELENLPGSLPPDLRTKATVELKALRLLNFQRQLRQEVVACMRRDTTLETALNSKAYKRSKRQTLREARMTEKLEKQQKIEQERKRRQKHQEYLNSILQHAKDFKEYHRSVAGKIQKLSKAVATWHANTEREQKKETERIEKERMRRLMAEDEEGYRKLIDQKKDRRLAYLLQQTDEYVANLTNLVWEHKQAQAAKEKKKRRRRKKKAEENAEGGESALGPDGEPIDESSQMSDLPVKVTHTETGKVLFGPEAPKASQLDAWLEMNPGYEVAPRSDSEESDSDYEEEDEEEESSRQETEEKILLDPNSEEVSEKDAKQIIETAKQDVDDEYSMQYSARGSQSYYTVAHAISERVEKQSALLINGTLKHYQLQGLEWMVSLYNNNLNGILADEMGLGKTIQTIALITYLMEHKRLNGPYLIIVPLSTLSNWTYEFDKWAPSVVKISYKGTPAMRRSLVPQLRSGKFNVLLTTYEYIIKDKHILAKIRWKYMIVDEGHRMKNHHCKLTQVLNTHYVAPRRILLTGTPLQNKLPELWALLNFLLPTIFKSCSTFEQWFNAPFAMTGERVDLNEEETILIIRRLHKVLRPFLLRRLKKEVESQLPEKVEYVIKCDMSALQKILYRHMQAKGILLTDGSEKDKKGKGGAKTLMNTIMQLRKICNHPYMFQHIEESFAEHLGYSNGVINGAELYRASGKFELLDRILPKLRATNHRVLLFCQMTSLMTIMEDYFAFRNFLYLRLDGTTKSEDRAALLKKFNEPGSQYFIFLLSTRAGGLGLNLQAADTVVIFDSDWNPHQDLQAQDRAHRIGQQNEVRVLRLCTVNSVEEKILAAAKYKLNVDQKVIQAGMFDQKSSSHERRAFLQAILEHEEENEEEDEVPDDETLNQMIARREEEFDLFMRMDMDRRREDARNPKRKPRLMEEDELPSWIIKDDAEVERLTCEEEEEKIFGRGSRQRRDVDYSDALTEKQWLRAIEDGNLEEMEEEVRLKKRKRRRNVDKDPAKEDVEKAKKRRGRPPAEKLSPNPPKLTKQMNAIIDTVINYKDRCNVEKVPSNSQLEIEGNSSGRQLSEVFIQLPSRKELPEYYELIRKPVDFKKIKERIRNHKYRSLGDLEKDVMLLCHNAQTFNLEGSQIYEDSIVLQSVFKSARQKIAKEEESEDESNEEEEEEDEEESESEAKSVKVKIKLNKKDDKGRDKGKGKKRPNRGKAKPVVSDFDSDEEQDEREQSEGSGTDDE
Assay: ATPase catalytic activity assay (ADP-Glo), BRM
Details: 30 nM BRM, 400 μM ATP
readout_kind: BRM Max % Inhibition (%)
Reply numerically in %, unit not repeated.

Item: "C[C@@]1(C#N)COCc2c(F)cc(C(=O)NCc3cc4nc(-c5ccccc5)ccc4cn3)cc21" | BRM Max % Inhibition: 96

Item: "C[C@@]1(F)COCc2ccc(C(=O)NCc3cc4nc(-c5ccnc(C6CC6)n5)sc4cn3)cc21" | BRM Max % Inhibition: 85

Item: "C[C@@]1(C#N)COCc2ccc(C(=O)NCc3cc4c(cn3)CCN(c3ccccc3)C4)cc21" | BRM Max % Inhibition: 95

Item: "O=C(NCc1cc2nc(-c3cncc(C4CC4)n3)ccc2cn1)c1cnc2c(c1)[C@](F)(C(F)F)CCO2" | BRM Max % Inhibition: 97

Item: "COc1cccc(-c2ccc3cnc(CNC(=O)c4ccc5c(c4)[C@](C)(C#N)COC5)cc3n2)c1" | BRM Max % Inhibition: 97

Item: "C[C@@]1(C#N)COCc2ccc(C(=O)NCc3cc(OCc4cccc(N5CCC5)c4)ccn3)cc21" | BRM Max % Inhibition: 96

Item: "O=C(NCc1cc2nc(-c3cncc(N4CCC4)n3)ccc2cn1)c1cc(F)c2c(c1)[C@@](F)(C(F)F)COC2" | BRM Max % Inhibition: 99

Item: "COC(=O)c1cccc(/C=C/c2ccnc(CNC(=O)c3ccc4c(c3)[C@](C)(C#N)COC4)c2)c1" | BRM Max % Inhibition: 100

Item: "COc1cccc(-c2ccc3cnc(CNC(=O)c4ccc5c(c4)[C@](C)(C#N)COC5)cc3n2)n1" | BRM Max % Inhibition: 99

Item: COC(=O)N1CCC(C#Cc2ccnc(CNC(=O)c3ccc4c(c3)[C@](C)(C#N)COC4)c2)C1 (some centres unmarked) | BRM Max % Inhibition: 70

Item: "CC(C)(O)C#Cc1cccc(-c2ccc3cnc(CNC(=O)c4ccc5c(c4)[C@](C)(C#N)COC5)cc3n2)n1" | BRM Max % Inhibition: 96

Item: "CO[C@@H]1CCN(c2cncc(-c3ccc4cnc(CNC(=O)c5ccc6c(c5)[C@](C)(C#N)COC6)cc4c3)n2)C1" | BRM Max % Inhibition: 99

Item: "C[C@@]1(C#N)COCc2ccc(C(=O)NCc3cc4c(cn3)CCN(c3ccnc(N5CCC5)n3)C4)cc21" | BRM Max % Inhibition: 96

Item: "C[C@@]1(C#N)COCc2ccc(C(=O)NCc3cc4nn(-c5ccccc5)cc4cn3)cc21" | BRM Max % Inhibition: 95

Item: "C[C@@]1(F)COCc2ccc(C(=O)NCc3cc4nc(-c5ccnc(N6CCN(C7COC7)CC6)n5)ccc4cn3)cc21" | BRM Max % Inhibition: 99

Item: "O=C(NCc1cc2nc(-c3cncc(N4CCC4)n3)ccc2cn1)c1cc(F)c2c(c1)[C@](F)(C(F)F)COC2" | BRM Max % Inhibition: 100

Item: "C[C@@]1(C#N)COCc2ccc(C(=O)NCc3cc4cc(-c5ccccc5)cnc4cn3)cc21" | BRM Max % Inhibition: 96

Item: "C[C@@]1(C#N)COCc2ccc(C(=O)NCc3cc4nc(-c5cccc(C#N)c5)ccc4cn3)cc21" | BRM Max % Inhibition: 94

Item: "C[C@@]1(F)COCc2ccc(C(=O)NCc3cc4nc(-c5cncc(N6CCOCC6)n5)ccc4cn3)cc21" | BRM Max % Inhibition: 104

Item: "C[C@@]1(C#N)COCc2ccc(C(=O)NCc3cc(OCC4CCOCC4)ccn3)cc21" | BRM Max % Inhibition: 85

Item: "C[C@@]1(C#N)COCc2ccc(C(=O)NCc3cc(N4CC(c5ccccc5)C4)cnn3)cc21" | BRM Max % Inhibition: 78

Item: "C[C@@]1(C#N)COCc2ccc(C(=O)NCc3cnc4ccc(-c5ccccc5)nc4c3)cc21" | BRM Max % Inhibition: 80

Item: "Cn1cc(F)c2c(-c3ccc4cnc(CNC(=O)c5ccc6c(c5)[C@](C)(C#N)COC6)cc4n3)cccc21" | BRM Max % Inhibition: 101

Item: "C[C@H](O)c1cccc(-c2ccc3cnc(CNC(=O)c4ccc5c(c4)[C@](C)(F)COC5)cc3n2)n1" | BRM Max % Inhibition: 97

Item: "CN(C)c1nccc(N2CCc3cnc(CNC(=O)c4ccc5c(c4)[C@](C)(C#N)COC5)cc3C2)n1" | BRM Max % Inhibition: 97

Item: "Cn1cc(-c2ccc3cnc(CNC(=O)c4ccc5c(c4)[C@](C)(C#N)COC5)cc3n2)cn1" | BRM Max % Inhibition: 84

Item: "C[C@@]1(F)COCc2ccc(C(=O)NCc3cc4nc(-c5cccc(C(F)F)n5)ccc4nn3)cc21" | BRM Max % Inhibition: 99

Item: "C[C@@]1(C#N)COCc2ccc(C(=O)NCc3cc4c(cn3)CCN(c3ccnc(C5CC5)n3)C4)cc21" | BRM Max % Inhibition: 89

Item: "C[C@@]1(C#N)COCc2ccc(C(=O)NCc3cc4nc(-c5ccnc([C@@H]6CC6(F)F)n5)ccc4cn3)cc21" | BRM Max % Inhibition: 99
